measuredTarget: human OT7T175 (metastin receptor) (human, UniProt Q969F8 1-398)
Sequence (Q969F8 whole entry L364H): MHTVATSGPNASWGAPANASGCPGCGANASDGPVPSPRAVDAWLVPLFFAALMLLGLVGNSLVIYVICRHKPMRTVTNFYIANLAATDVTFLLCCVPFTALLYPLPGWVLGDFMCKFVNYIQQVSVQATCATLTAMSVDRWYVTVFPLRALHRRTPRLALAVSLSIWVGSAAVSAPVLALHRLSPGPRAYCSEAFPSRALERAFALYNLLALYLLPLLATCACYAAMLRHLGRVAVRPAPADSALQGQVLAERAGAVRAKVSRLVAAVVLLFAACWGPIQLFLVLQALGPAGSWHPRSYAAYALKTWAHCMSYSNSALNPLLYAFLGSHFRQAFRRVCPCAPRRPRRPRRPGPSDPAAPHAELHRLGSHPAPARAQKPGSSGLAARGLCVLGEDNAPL
experimentalProtocol: cell-based or functional assay
Non-standard residues stand in square brackets, D forms with d. No end group written: not given here. *: point of attachment. GuAmb = 4-guanidinomethylbenzoyl, N=C(N)NCc1ccc(C(=O)*)cc1; Propanoyl(3-indol-3-yl) = O=C(CCc1c[nH]c2ccccc12)*; Arg(Me) = CNC(=N)NCCC[C@H](N)C(=O)O; azaGly = NNC(=O)O
Reported Ca ion level-increasing activity (FLIPR) values follow for various binders

Some entries whose results are on file:
Ca ion level-increasing activity (FLIPR) measured on {n‑hexanoyl}-NSF[azaGly]L[Arg(Me)]F-NH2 (also called Compound No. 277) [des(1-3)-n-Hexanoyl-[AzaGly7,Arg(Me)9]MS10] = 2 x Metastin (1-54)

Ca ion level-increasing activity (FLIPR) measured on [dY]NWNTF[azaGly]L[Arg(Me)]F-NH2 (N-terminus assumed; SMILES CNC(=N)NCCC[C@H](NC(=O)[C@H](CC(C)C)NC(=O)NNC(=O)[C@H](Cc1ccccc1)NC(=O)[C@@H](NC(=O)[C@H](CC(N)=O)NC(=O)[C@H](Cc1c[nH]c2ccccc12)NC(=O)[C@H](CC(N)=O)NC(=O)[C@H](N)Cc1ccc(O)cc1)[C@@H](C)O)C(=O)N[C@@H](Cc1ccccc1)C(N)=O, also called Compound No. 297) [[D-Tyr1,Thr5,AzaGly7,Arg(Me)9]MS10] = 1 x Metastin (1-54)

Ca ion level-increasing activity (FLIPR) measured on {4‑(3-indolyl)butyryl}-NSF[azaGly]L[Arg(Me)]F-NH2 (also called Compound No. 267) [des(1-3)-4-(3-Indolyl)butyryl-[AzaGly7,Arg(Me)9]MS10] = 2 x Metastin (1-54)

Ca ion level-increasing activity (FLIPR) measured on {Propanoyl(3-indol-3-yl)}-NSF[azaGly]L[Arg(Me)]F-NH2 (also: also named 1-(3-indolyl)propionyl cap, also called Compound No. 260) [des(1-3)-3-(3-Indolyl)propionyl-[AzaGly7,Arg(Me)9]MS10] = 5 x Metastin (1-54)

---
Ca ion level-increasing activity (FLIPR) measured on [dA]NWNSF[azaGly]L[Arg(Me)]F-NH2 (N-terminus assumed; SMILES CNC(=N)NCCC[C@H](NC(=O)[C@H](CC(C)C)NC(=O)NNC(=O)[C@H](Cc1ccccc1)NC(=O)[C@H](CO)NC(=O)[C@H](CC(N)=O)NC(=O)[C@H](Cc1c[nH]c2ccccc12)NC(=O)[C@H](CC(N)=O)NC(=O)[C@@H](C)N)C(=O)N[C@@H](Cc1ccccc1)C(N)=O, also called Compound No. 259) [[D-Ala1,AzaGly7,Arg(Me)9]MS10] = 1 x Metastin (1-54)

Ca ion level-increasing activity (FLIPR) measured on GuAmb-F[azaGly]L[Arg(Me)]W-NH2 [des(1-5)-GuAmb-[AzaGly7,Arg(Me)9,Trp10]MS10] = 5 x Metastin (1-54)
